The reported measurements were obtained from paper PMC3198402.

TARGET OR TEST SYSTEM: B*3501 (Homo sapiens, UniProt P01889, A329T/A93T/A95T/C349S/D201E/D98Y/E176V/E187L/E204Q/E69T/I218V/K202T/L119I/Q94N/R155S/R180L/S121R/S35A/S48A/T118I/V127L/V306I/V36M/Y140S/Y91F)
ASSAY NAME: biochemical
Provide the recorded pKd for the entries that follow.
Give bare numbers, as −log10 of the molar value.

Known results for compounds:
Query block: # pKd lookup, item CSCC[C@H](NC(=O)[C@H](CC(C)C)NC(=O)[C@@H](NC(=O)[C@H](Cc1c[nH]c2ccccc12)NC(=O)[C@H](CCSC)NC(=O)[C@H](CCC(N)=O)NC(=O)[C@H](C)NC(=O)[C@@H](N)Cc1ccc(O)cc1)[C@@H](C)O)C(=O)N[C@@H](Cc1ccc(O)cc1)C(=O)O [Peptide 14594]
Result block: 9.00

Query block: Query (compound): CSCC[C@H](NC(=O)[C@H](C)NC(=O)[C@H](CC(=O)O)NC(=O)CNC(=O)CNC(=O)[C@H](CC(N)=O)NC(=O)[C@H](CC(N)=O)NC(=O)[C@@H](N)CCSC)C(=O)N[C@@H](Cc1ccc(O)cc1)C(=O)O [YFV A1 15865] ; field requested: pKd
Result block: 7.34

Query block: What measured pKd goes with CC[C@H](C)[C@H](NC(=O)[C@H](CC(N)=O)NC(=O)[C@H](C)NC(=O)[C@@H](N)CCSC)C(=O)N[C@@H](Cc1ccccc1)C(=O)N[C@@H](CCCNC(=N)N)C(=O)NCC(=O)N[C@@H](CO)C(=O)N[C@@H](Cc1ccc(O)cc1)C(=O)O [Peptide 14582] ?
Result block: 6.08

Query block: What does the record list as pKd for CC(C)C[C@H](NC(=O)CNC(=O)[C@H](C)NC(=O)CNC(=O)[C@H](C)NC(=O)[C@H](CC(C)C)NC(=O)[C@@H](N)Cc1ccc(O)cc1)C(=O)N[C@@H](C)C(=O)N[C@@H](Cc1ccccc1)C(=O)O [Peptide 14703] ?
Result block: 8.40

---
Query block: Fill blank: measured pKd of the compound CSCC[C@H](NC(=O)[C@H](CC(C)C)NC(=O)[C@H](CO)NC(=O)[C@H](Cc1c[nH]c2ccccc12)NC(=O)[C@H](CCSC)NC(=O)[C@H](CC(N)=O)NC(=O)[C@H](C)NC(=O)[C@@H](N)Cc1ccc(O)cc1)C(=O)N[C@@H](Cc1ccc(O)cc1)C(=O)O [YFV A1 15864] is ____.
Result block: 9.00
